- assayed system: T1, recombinant human vascular endothelial growth factor (hVEGF) 121 (human, UniProt P15692 27-147)
- T1 construct: mature; also called human VEGF-A121; hVEGF 121 isoform
- T1 sequence (looked up): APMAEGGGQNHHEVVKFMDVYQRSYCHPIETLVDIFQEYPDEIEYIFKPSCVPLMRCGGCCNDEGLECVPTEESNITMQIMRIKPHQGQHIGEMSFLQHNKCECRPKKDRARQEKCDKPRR
- method: Fab-ELISA: Fab titrated on wells coated with 2 ug/mL hVEGF-121, detected with anti-kappa-light-chain-HRP; Kd estimated from EC50
pKd: −log10 of the molar value.
measurement label: pKd

binder	measured
FF0124-5 (Fab, V domains shown, also called FF0124-5 F2091) VH: EVQLVESGGGLVQPGGSLRLSCAASGFDISSYYMHWVRQAPGKGLEWVASIYSYSGYTYYADSVKGRFTISADTSKNTAYLQMNSLRAEDTAVYYCARHSVYYWYGSYWYYPSSAMDYWGQGTLVTVSS VL: DIQMTQSPSSLSASVGDRVTITCRASQSVSSAVAWYQQKPGKAPKLLIYSASSLYSGVPSRFSGSRSGTDFTLTISSLQPEDFATYYCQQFWAGYGLITFGQGTKVEIK	7.72
